Tested on: Staphylococcus aureus
METHOD DESCRIPTION: Antimicrobial activity against Staphylococcus aureus MTCC 96 after by agar well diffusion method; note: test concentration or dose not given here
Threshold rule: inhibition zone (IZ) greater than or equal to 20 mm is Yes; below that, No.

IN: Assess whether reported inhibition zone (IZ) for Fc1ccc(-c2nn(-c3ccccc3)cc2-c2nnc(-c3ccccc3)o2)cc1 sits at 20 mm or higher.
OUT: No

IN: Assess whether reported inhibition zone (IZ) for O=C(O)c1cn(C2CC2)c2cc(N3CCNCC3)c(F)cc2c1=O [CIPROFLOXACIN] sits at 20 mm or higher.
OUT: Yes

IN: Assess whether reported inhibition zone (IZ) for Clc1ccc(-c2nn(-c3ccccc3)cc2-c2nnc(-c3ccccc3)o2)cc1 sits at 20 mm or higher.
OUT: Yes

IN: Assess whether reported inhibition zone (IZ) for O=[N+]([O-])c1ccc(-c2nn(-c3ccccc3)cc2-c2nnc(-c3ccccc3)o2)cc1 sits at 20 mm or higher.
OUT: Yes

IN: Assess whether reported inhibition zone (IZ) for O=[N+]([O-])c1ccc(-n2cc(-c3nnc(-c4ccccc4)o3)c(-c3ccccc3)n2)cc1 sits at 20 mm or higher.
OUT: Yes

IN: Assess whether reported inhibition zone (IZ) for COc1ccc(-c2nn(-c3ccccc3)cc2-c2nnc(-c3ccccc3)o2)cc1 sits at 20 mm or higher.
OUT: Yes
